Molecular target: RUNX1 (UniProt Q01196)
Sequence (Q01196 whole entry): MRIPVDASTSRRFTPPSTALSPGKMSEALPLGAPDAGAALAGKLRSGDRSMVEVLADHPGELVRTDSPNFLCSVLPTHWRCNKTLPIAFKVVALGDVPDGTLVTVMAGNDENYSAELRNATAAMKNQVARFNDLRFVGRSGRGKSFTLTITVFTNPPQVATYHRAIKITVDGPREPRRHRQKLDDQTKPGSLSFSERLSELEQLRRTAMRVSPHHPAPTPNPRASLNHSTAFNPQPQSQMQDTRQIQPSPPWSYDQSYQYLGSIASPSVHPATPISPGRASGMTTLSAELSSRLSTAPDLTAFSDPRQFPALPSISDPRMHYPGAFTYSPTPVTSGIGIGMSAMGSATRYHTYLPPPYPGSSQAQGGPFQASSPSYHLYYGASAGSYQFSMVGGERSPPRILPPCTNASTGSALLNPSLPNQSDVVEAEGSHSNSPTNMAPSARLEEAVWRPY
Experiment: RUNX1 binding intensity (PBM fluorescence), RUNX1 alone (arbitrary fluorescence units); higher = stronger binding;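 note: Full-length recombinant human RUNX1 bound to double-stranded 36-bp genomic probes on a high-density microarray, scored as Alexa488 fluorescence per spot via anti-RUNX1 antibody, median of four replicate spots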
Settings: RUNX1 concentration 2 nM; ETS1 concentration 0 nM
Assign Satisfied whenever RUNX1 binding intensity does not fall below 1000; assign Not satisfied whenever it does.

biopolymer_sequence=TCGCCCACTTCCCCACCTCTCAAAAGACCACAGGCA label_class=Satisfied
biopolymer_sequence=CGAAAGTGACCGGAAGTAACCGCCGGGCCAAGATGG label_class="Not satisfied"
biopolymer_sequence=CAAGCCAGGAAGAGGGCCCTCACCAGAAACCGCACT label_class="Not satisfied"
biopolymer_sequence=GACCGAGAGGAAGCAGCAAGGATCCTGCGGTTCCAG label_class="Not satisfied"
biopolymer_sequence=GCACCCGGCACTACTTCCCGACCCGCATCCCCCGCC label_class=Satisfied
biopolymer_sequence=ACACAGGAAGCAAAAGTTAAGCTATAAAACCCGCAA label_class="Not satisfied"
biopolymer_sequence=AGTCCTGCCCACTTCCTGCCGCAAGAGAAATCCACT label_class=Satisfied
biopolymer_sequence=GTTTCTCTGGCCAGGAAATTGAGGTTTCTGTTAGTC label_class="Not satisfied"
biopolymer_sequence=AGGGAAGCAGGAAGTGACTGCGGGAGTGGAGCCGGC label_class="Not satisfied"

Now examine the next entry.
[in] # bool: RUNX1 binding intensity of `CGGGACACAGGAAGCCGTTGTGGGGCCCCGGGGCCA` >= 1000
[out] Not satisfied
